- target_entity: human H4 receptor (Homo sapiens (Human))
- assay_overview: Binding assay on recombinant human histamine H4 receptor ([3H]histamine competition, SK-N-MC cell membranes)
- conditions: membranes harvested with cell harvester; [3H]histamine 10 nM; average of results; read-out: Cell Harvester Ki
Structures can show the parent of a compound that is named as a salt.
quantity: Ki (nM)

CN1CCN(c2ccnc(NCC(C)(C)O)n2)CC1 : 303
CN[C@@H]1CCN(c2ccnc(NCC3CC3)n2)C1 : 3.3
CN[C@@H]1CCN(c2ccnc(NCC3CCCCC3)n2)C1 : 3.58
CN1CCN(c2cnnc(NCC(C)(C)C)c2)CC1 : 4300
CN[C@@H]1CCN(c2ccnc(NC3CC4CCC3C4)c2)C1 (stereo partly shown) [Example 1, dihydrochloride] : 0.5

I. CN1CCN(c2ccnc(NC34C[C@H]5C[C@@H](C3)C[C@@H](C4)C5)c2)CC1
II. CN[C@@H]1CCN(c2ccnc(N[C@H]3C[C@H]4CC[C@]3(C)C4(C)C)n2)C1
Identify the entry with the larger Ki. Options: I and II Field: selected label. Fill in the label of the entry you choose.
I
(I: 188 nM, II: 1.68 nM)

1. c1ccc(CNc2nccc(N3CCNCC3)n2)cc1
2. CN[C@H]1CCN(c2ccnc(NC3CC4CCC3C4)c2)C1 (stereo partly shown)
Hi there, can you help? I need to know whether 1 or 2 has lower measured Ki. Field: selected label. Fill in the label of the entry you choose.
2
